target: TrkB (or NTRK2) (Homo sapiens); construct: using the soluble intracellular segment of theses receptors, containing the kinase activity; purchased Invitrogen; assay: In vitro kinase glo plus-based kinase assay, TrkB; assay type: biochemical; details: comparative experiments; 40 μM ATP
Sequence (Q16620 455-822 limits assumed): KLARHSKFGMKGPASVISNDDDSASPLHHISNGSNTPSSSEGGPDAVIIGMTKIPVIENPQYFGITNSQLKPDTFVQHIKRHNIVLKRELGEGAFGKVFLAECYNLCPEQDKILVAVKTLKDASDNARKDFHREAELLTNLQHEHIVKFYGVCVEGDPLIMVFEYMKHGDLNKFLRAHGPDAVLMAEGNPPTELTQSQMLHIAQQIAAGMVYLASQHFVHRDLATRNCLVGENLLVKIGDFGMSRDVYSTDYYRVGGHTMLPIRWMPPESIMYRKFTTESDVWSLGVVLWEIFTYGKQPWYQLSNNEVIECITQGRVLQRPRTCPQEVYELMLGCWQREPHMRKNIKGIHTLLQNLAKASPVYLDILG
MEASURED_QUANTITY: IC50 (µM)

Take a look at these entries with their results.
                                   molecule                   tested_target  value_reported
0  CN1CCN(c2ccc(C(=O)Nc3n[nH]c4nc(Nc5ccc(F)cc5F)ccc34)c(NC3CCOCC3)c2)CC1 [C]  TrkB (or NTRK2) (Homo sapiens)             5.8
1  CN1CCN(c2ccc(C(=O)Nc3n[nH]c4nc(Nc5ccc(F)cc5F)ncc34)c(NC3CCOCC3)c2)CC1 [B]  TrkB (or NTRK2) (Homo sapiens)              18

P: Nc1n[nH]c2ncc(Sc3cc(F)cc(F)c3)cc12 [D]
Q: CN1CCN(c2ccc(C(=O)Nc3n[nH]c4ncc(Sc5cc(F)cc(F)c5)cc34)c(NC3CCOCC3)c2)CC1 [Compound 30]
Query :: I would appreciate it if you could say which entry, P or Q , has the lower IC50 value. Answer = label.
Result :: Q
(Q: 0.031 µM, P: 35 µM)

Entry source: patent US9381195B2
